Test system: Staphylococcus aureus
Test: Selectivity ratio of MBC for antibacterial activity against Methicillin-resistant Staphylococcus aureus ATCC 33591 to MIC for antibacterial activity against Methicillin-resistant Staphylococcus aureus ATCC 33591
Type: functional
Measured Endpoint: Ratio

Compound: C=C[C@]1(C)C[C@@H](OC(=O)CSc2nc(N)nc3c2ncn3C(=O)Nc2cccc(NC(=O)OC(C)(C)C)c2)[C@@]2(C)C3C(=O)CC[C@@]3(CC[C@H]2C)[C@@H](C)[C@@H]1O (stereo partly drawn)
Quantitative Result: 4
--
Compound: C=C[C@]1(C)C[C@@H](OC(=O)CSc2nc(N)nc3c2ncn3C(=O)NCc2ccccc2OC)[C@@]2(C)C3C(=O)CC[C@@]3(CC[C@H]2C)[C@@H](C)[C@@H]1O (stereo partly drawn)
Quantitative Result: 4
--
Compound: C=C[C@]1(C)C[C@@H](OC(=O)CSc2nc(N)nc3[nH]cnc23)[C@@]2(C)C3C(=O)CC[C@@]3(CC[C@H]2C)[C@@H](C)[C@@H]1O (stereo partly drawn)
Quantitative Result: 4
